Molecular target: MAP3K7/MAP3K7IP1 (TAK1-TAB1) (Homo sapiens, UniProt O43318)
Sequence (O43318 with tags, fused parts or gaps limits assumed): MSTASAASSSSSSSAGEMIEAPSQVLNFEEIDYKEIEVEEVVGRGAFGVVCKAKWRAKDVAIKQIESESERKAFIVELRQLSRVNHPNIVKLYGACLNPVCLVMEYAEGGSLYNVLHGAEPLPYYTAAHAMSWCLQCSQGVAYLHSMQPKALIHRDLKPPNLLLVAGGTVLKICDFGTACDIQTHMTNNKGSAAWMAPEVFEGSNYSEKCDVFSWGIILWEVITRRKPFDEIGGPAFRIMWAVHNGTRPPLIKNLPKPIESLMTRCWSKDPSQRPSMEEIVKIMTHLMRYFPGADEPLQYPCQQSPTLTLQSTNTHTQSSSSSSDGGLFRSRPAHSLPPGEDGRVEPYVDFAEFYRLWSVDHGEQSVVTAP
Experiment: Invitrogen kinase assay MAP3K7/MAP3K7IP1 (TAK1-TAB1)
parameter: IC50 (nM)
One number for each entry, in nM.

Challenge: Consider the compound CCN1CCN(Cc2ccc(NC(=O)c3ccc(C)c(Oc4ncnc5cc(NC)c(OC)cc45)c3)cc2C(F)(F)F)CC1 [Compound (I-1)] and give its measured IC50.
Response given: 24.1

====

Biological target: LYN A (Homo sapiens, UniProt P07948)
Sequence (P07948 whole entry): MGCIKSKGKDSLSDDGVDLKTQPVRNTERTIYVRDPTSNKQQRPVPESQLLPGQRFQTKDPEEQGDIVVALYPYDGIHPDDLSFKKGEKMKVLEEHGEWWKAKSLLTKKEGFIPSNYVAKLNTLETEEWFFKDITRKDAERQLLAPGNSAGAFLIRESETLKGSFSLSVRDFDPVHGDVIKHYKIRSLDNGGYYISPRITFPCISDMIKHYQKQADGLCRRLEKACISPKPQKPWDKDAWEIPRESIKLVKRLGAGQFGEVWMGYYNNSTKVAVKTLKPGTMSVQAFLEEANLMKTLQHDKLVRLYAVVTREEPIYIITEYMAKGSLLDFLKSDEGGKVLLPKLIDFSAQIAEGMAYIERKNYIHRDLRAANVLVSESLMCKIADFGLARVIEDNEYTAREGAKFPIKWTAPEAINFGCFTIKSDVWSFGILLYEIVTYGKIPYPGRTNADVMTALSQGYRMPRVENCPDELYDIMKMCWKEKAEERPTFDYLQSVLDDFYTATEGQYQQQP
parameter: pIC50
Numbers only, as −log10 of the molar value.

Challenge: Query pIC50 on LYN A (Homo sapiens, UniProt P07948) for CCN1CCN(Cc2ccc(NC(=O)c3ccc(C)c(Oc4ncnc5cc(NC)c(OC)cc45)c3)cc2C(F)(F)F)CC1
Response given: 8.06

Ref: patent US20230339865A1
